# System: Mycoplasma hyorhinis
# test_method_notes: MIC, broth-dilution microtiter test, Mycoplasma hyorhinis
# Type: cell-based
# setup_conditions: Mycoplasma hyorhinis; broth-dilution microtiter
# Description: The MIC's in Table X were obtained using conventional broth-dilution microtiter tests.
Listed below: MIC values for each entry.
Use µg/mL as the unit, but write only the number.

compound: CCC(=O)OC1C(C)OC(OC2C(CCN3C(=O)c4ccccc4C3=O)CC(C)C(=O)C=CC(C)=CC(COC3OC(C)C(O)C(OC)C3OC)C(CC)OC(=O)CC(O)C2C)C(OC(=O)CC)C1N(C)C (stereo not drawn) [Compound 66]
observed: 50

Now for another entry.
What value of MIC has been reported for the following compound? CCC1OC(=O)CC(O)C(C)C(OC2OC(C)C(O)C(N(C)C)C2O)C(CCOc2ccc(CN3CCCCCC3)cc2)CC(C)C(=O)C=CC(C)=CC1COC1OC(C)C(O)C(OC)C1OC (stereo not drawn) [Compound 42]
25

----------
# System: Haemophilus influenzae Holt
# test_method_notes: MIC, standard agar-dilution assay, Haemophilus influenzae Holt
# Type: cell-based
# setup_conditions: Haemophilus influenzae Holt; ampicillin-sensitive strain; agar dilution
measured_parameter: MIC (µg/mL)
Use µg/mL as the unit, but write only the number.

compound: CCC1OC(=O)CC(O)C(C)C(OC2OC(C)C(O)C(N(C)C)C2O)C(CCOc2cccnc2)CC(C)C(=O)C=CC(C)=CC1COC1OC(C)C(O)C(OC)C1OC (stereo not shown)
observed: 16

What value of MIC has been reported for the following compound? CCC1OC(=O)CC(O)C(C)C(OC2OC(C)C(O)C(N(C)C)C2O)C(CCOc2cc(Cl)cc(Cl)c2)CC(C)C(=O)C=CC(C)=CC1COC1OC(C)C(O)C(OC)C1OC (stereo not shown)
32

----------
# Tested on: Staphylococcus aureus
# test_method_notes: MIC, broth-dilution microtiter test, Staphylococcus aureus
# Format: cell-based
Listed below: MIC values for each entry.
Use µg/mL as the unit, but write only the number.

Completed entries (count: 3):
compound: CCC1OC(=O)CC(O)C(C)C(OC2OC(C)C(OC3CC(C)(O)C(O)C(C)O3)C(N(C)C)C2O)C(CCNC(=O)Cc2ccccc2)CC(C)C(=O)C=CC(C)=CC1COC1OC(C)C(O)C(OC)C1OC (stereo not shown)
MIC / µg/mL: 1.56

compound: CCC1OC(=O)CC(O)C(C)C(OC2OC(C)C(O)C(N(C)C)C2O)C(CCOC)CC(C)C(=O)C=CC(C)=CC1COC1OC(C)C(O)C(OC)C1OC (stereo not shown)
MIC / µg/mL: 0.78

compound: CCC1OC(=O)CC(O)C(C)C(OC2OC(C)C(OC3CC(C)(O)C(O)C(C)O3)C(N(C)C)C2O)C(CCN2C(=O)c3ccccc3C2=O)CC(C)C(=O)C=CC(C)=CC1COC1OC(C)C(O)C(OC)C1OC (stereo not shown)
MIC / µg/mL: 6.25

What value of MIC has been reported for the following compound? CCC1OC(=O)CC(O)C(C)C(OC2OC(C)C(OC3CC(C)(O)C(O)C(C)O3)C(N(C)C)C2O)C(CCOc2ccc(C=O)cc2)CC(C)C(=O)C=CC(C)=CC1COC1OC(C)C(O)C(OC)C1OC (stereo not shown)
1.56

----------
# Tested on: Streptococcus pyogenes C203
# test_method_notes: In vivo protection of mice experimentally infected with S. pyogenes C203
# setup_conditions: Streptococcus pyogenes, C203, sc; mice; subcutaneous; doses given 1 and 4 hours post-infection; read-out: ED50, Subcutaneous
Listed below: ED50 values for each entry.
Use mg/kg as the unit, but write only the number.

Completed entries (count: 3):
compound: CCC1OC(=O)CC(O)C(C)C(OC2OC(C)C(O)C(N(C)C)C2O)C(CCOc2ccc([N+](=O)[O-])cc2)CC(C)C(=O)C=CC(C)=CC1COC1OC(C)C(O)C(OC)C1OC (stereo not drawn)
system: Streptococcus pyogenes C203
ED50 [mg/kg]: 1.1
--
compound: CCC1OC(=O)CC(O)C(C)C(OC2OC(C)C(O)C(N(C)C)C2O)C(CCCl)CC(C)C(=O)C=CC(C)=CC1COC1OC(C)C(O)C(OC)C1OC (stereo not drawn)
system: Streptococcus pyogenes C203
ED50 [mg/kg]: 0.7
--
compound: CCC1OC(=O)CC(O)C(C)C(OC2OC(C)C(O)C(N(C)C)C2O)C(CC2Nc3ccccc3S2)CC(C)C(=O)C=CC(C)=CC1COC1OC(C)C(O)C(OC)C1OC (stereo not drawn)
system: Streptococcus pyogenes C203
ED50 [mg/kg]: 1.7

Now for another entry.
What value of ED50 has been reported for the following compound? CCOC(=O)C1CSC(CC2CC(C)C(=O)C=CC(C)=CC(COC3OC(C)C(O)C(OC)C3OC)C(CC)OC(=O)CC(O)C(C)C2OC2OC(C)C(O)C(N(C)C)C2O)N1 (stereo not drawn)
4.8
